The values you see were collected from patent US10081631B2.

- Tested on: primary human fibroblasts derived from IPF patients (LL29 cells)
- experiment_description: Inhibition of fibrosis: TGF-β1-treated primary human fibroblasts from IPF patients (LL29), αSMA staining
- Format: cell-based
- measurement_context: Fibroblast, 96 h, TGF-β1 20 ng/mL, 4 days, % αSMA-positive cells

compound_smiles | target_under_test | units_of_measure | EC50
CS(=O)(=O)NCc1cc(F)cc(-c2nccc3[nH]c(-c4n[nH]c5ccc(-c6cncc(NC(=O)c7ccccc7)c6)cc45)nc23)c1 | primary human fibroblasts derived from IPF patients (LL29 cells) | µM | 9.99
CS(=O)(=O)NCc1cc(F)cc(-c2nccc3[nH]c(-c4n[nH]c5ccc(-c6cncc(CNCc7ccccc7)c6)cc45)nc23)c1 | primary human fibroblasts derived from IPF patients (LL29 cells) | µM | 0.009
Fc1cccc(-c2nccc3[nH]c(-c4n[nH]c5ccc(C6=CCNCC6)cc45)nc23)c1 | primary human fibroblasts derived from IPF patients (LL29 cells) | µM | 9.99
Cc1cn(-c2nccc3[nH]c(-c4n[nH]c5ccc(-c6cncc(NC(=O)C(C)(C)C)c6)cc45)nc23)cn1 | primary human fibroblasts derived from IPF patients (LL29 cells) | µM | 0.05
CN1CCN(c2nccc3[nH]c(-c4n[nH]c5ccc(-c6cncc(NC(=O)C7CCCC7)c6)cc45)nc23)CC1 | primary human fibroblasts derived from IPF patients (LL29 cells) | µM | 9.99
CC(C)CC(=O)Nc1cncc(-c2ccc3[nH]nc(-c4nc5c(-c6ccc(F)s6)nccc5[nH]4)c3c2)c1 | primary human fibroblasts derived from IPF patients (LL29 cells) | µM | 0.665
CN(C)Cc1cncc(-c2ccc3[nH]nc(-c4nc5c(N6CCCCC6)nccc5[nH]4)c3c2)c1 | primary human fibroblasts derived from IPF patients (LL29 cells) | µM | 0.171
O=C(Nc1cncc(-c2ccc3[nH]nc(-c4nc5c(-c6ccc(F)cc6)nccc5[nH]4)c3c2)c1)C1CCC1 | primary human fibroblasts derived from IPF patients (LL29 cells) | µM | 0.009
CCNCc1cncc(-c2ccc3[nH]nc(-c4nc5c(-c6ccoc6)nccc5[nH]4)c3c2)c1 | primary human fibroblasts derived from IPF patients (LL29 cells) | µM | 0.009
CN1CCN(c2nccc3[nH]c(-c4n[nH]c5ccc(-c6cncnc6)cc45)nc23)CC1 | primary human fibroblasts derived from IPF patients (LL29 cells) | µM | 0.28
CC(C)C(=O)Nc1cncc(-c2ccc3[nH]nc(-c4nc5c(-c6cccs6)nccc5[nH]4)c3c2)c1 | primary human fibroblasts derived from IPF patients (LL29 cells) | µM | 0.186
Cc1ccc(-c2nccc3[nH]c(-c4n[nH]c5ccc(-c6cncc(NC(=O)C(C)C)c6)cc45)nc23)s1 | primary human fibroblasts derived from IPF patients (LL29 cells) | µM | 0.038
COc1cncc(-c2ccc3[nH]nc(-c4nc5c(-c6cccc(F)c6)nccc5[nH]4)c3c2)c1 | primary human fibroblasts derived from IPF patients (LL29 cells) | µM | 0.019
CS(=O)(=O)NCc1cc(F)cc(-c2nccc3[nH]c(-c4n[nH]c5ccc(-c6cncc(NC(=O)Cc7ccccc7)c6)cc45)nc23)c1 | primary human fibroblasts derived from IPF patients (LL29 cells) | µM | 0.009
